Origin of measurements: the supplement of paper PMC10266784

B1: library; numbered along this chain (parent)
chain: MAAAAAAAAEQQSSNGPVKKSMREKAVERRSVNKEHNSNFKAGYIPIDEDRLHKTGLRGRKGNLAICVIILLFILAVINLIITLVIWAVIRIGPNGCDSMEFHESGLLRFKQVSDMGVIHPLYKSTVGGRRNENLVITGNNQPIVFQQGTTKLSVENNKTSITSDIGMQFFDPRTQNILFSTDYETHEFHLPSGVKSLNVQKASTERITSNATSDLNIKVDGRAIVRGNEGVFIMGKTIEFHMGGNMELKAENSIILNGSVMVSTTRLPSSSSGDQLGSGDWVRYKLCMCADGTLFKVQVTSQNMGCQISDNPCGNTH

Variants of: B1
Test: SGCB cell-surface expression functional score (HA stain, bin4 vs bin1, normalised to synonymous) (log10 ratio); higher = more cell-surface SGCB (functional)
If the reported SGCB cell-surface expression functional score (log10) equals or exceeds -0.1, assign 1. If not, assign -1.

QUERY: # check: SGCB cell-surface expression functional score (log10) of S105H is greater than or equal to -0.1
RESULT: 1

QUERY: # check: SGCB cell-surface expression functional score (log10) of V18K is greater than or equal to -0.1
RESULT: 1

QUERY: # check: SGCB cell-surface expression functional score (log10) of I78L is greater than or equal to -0.1
RESULT: 1

QUERY: # check: SGCB cell-surface expression functional score (log10) of G306M is greater than or equal to -0.1
RESULT: -1

QUERY: # check: SGCB cell-surface expression functional score (log10) of S125N is greater than or equal to -0.1
RESULT: -1

QUERY: # check: SGCB cell-surface expression functional score (log10) of A76C is greater than or equal to -0.1
RESULT: 1

QUERY: # check: SGCB cell-surface expression functional score (log10) of Q112R is greater than or equal to -0.1
RESULT: 1

QUERY: # check: SGCB cell-surface expression functional score (log10) of D115H is greater than or equal to -0.1
RESULT: -1

QUERY: # check: SGCB cell-surface expression functional score (log10) of T301W is greater than or equal to -0.1
RESULT: 1

QUERY: # check: SGCB cell-surface expression functional score (log10) of E24G is greater than or equal to -0.1
RESULT: 1

QUERY: # check: SGCB cell-surface expression functional score (log10) of L107W is greater than or equal to -0.1
RESULT: -1

QUERY: # check: SGCB cell-surface expression functional score (log10) of R130G is greater than or equal to -0.1
RESULT: -1

QUERY: # check: SGCB cell-surface expression functional score (log10) of I309W is greater than or equal to -0.1
RESULT: 1

QUERY: # check: SGCB cell-surface expression functional score (log10) of K61E is greater than or equal to -0.1
RESULT: 1

QUERY: # check: SGCB cell-surface expression functional score (log10) of S210L is greater than or equal to -0.1
RESULT: -1

QUERY: # check: SGCB cell-surface expression functional score (log10) of L72I is greater than or equal to -0.1
RESULT: 1

QUERY: # check: SGCB cell-surface expression functional score (log10) of S154V is greater than or equal to -0.1
RESULT: 1

QUERY: # check: SGCB cell-surface expression functional score (log10) of K286T is greater than or equal to -0.1
RESULT: -1

QUERY: # check: SGCB cell-surface expression functional score (log10) of S210P is greater than or equal to -0.1
RESULT: -1

QUERY: # check: SGCB cell-surface expression functional score (log10) of K286H is greater than or equal to -0.1
RESULT: -1
